All values here come from ChEMBL document CHEMBL4725490.

Assay: Inhibition of firefly luciferase activity using ATP as substrate preincubated followed by substrate addition and measured after 15 mins by firefly luciferase reporter gene assay
Parameters: species or system Photinus pyralis
Settings: read-out: IC50
Result type: IC50 (µM)

For orientation, consider the following solved cases.
(Q) Please report the recorded IC50 for CCP(=O)(OC)c1ccc2oc(-c3ccc(OC)cc3)nc2c1 (stereo unspecified) .
(A) 0.19

(Q) Return reported IC50; argument: CCP(=O)(OC)c1ccc2oc(-c3cccc(OC)c3)nc2c1 (stereo unspecified)
(A) 0.088

(Q) Returns the measured IC50 for the input compound. Input: CCP(=O)(OC)c1ccc2oc(-c3ccc(F)cc3)nc2c1 (stereo unspecified)
(A) 0.115

(Q) May I ask what IC50 has been recorded for CCP(=O)(OC)c1ccc2oc(-c3cccc(C(F)(F)F)c3)nc2c1 (stereo unspecified) ?
(A) 12.1

P = CCP(=O)(OC)c1ccc2oc(-c3ccccc3C(F)F)nc2c1 (stereo unspecified)
Q = CCP(=O)(OC)c1ccc2oc(-c3cccc(C(F)F)c3)nc2c1 (stereo unspecified)
R = CCP(=O)(OC)c1ccc2oc(-c3ccc4c(c3)OC(F)(F)O4)nc2c1 (stereo unspecified)
(Q) Highest IC50 first, then in falling order down to the smallest. Respond with an ordered listing of the labels, as requested.
(A) R, P, Q

---

Assay: Half life in mouse hepatocyte
Details: hepatocytes
Result type: half-life

Some entries whose results are on file:
(Q) Request the reported half-life associated with CCP(=O)(OC)c1ccc2nc(-c3cncc(C(F)F)c3)oc2c1 (centres undefined)
(A) > 4 h

(Q) Consider the compound CCP(=O)(OC)c1ccc2oc(-c3cncc(C(F)F)c3)nc2c1 (centres undefined) and give its measured half-life.
(A) > 4 h

(Q) Name the reported half-life value associated with the compound CCP(=O)(OC)c1ccc2nc(-c3ccccc3C(F)F)oc2c1 (centres undefined)
(A) < 0.05 h

Next, consider the following compound.
(Q) // lookup half-life for CCP(=O)(OC)c1ccc2oc(-c3cccc(OC)c3)nc2c1 (centres undefined)
(A) < 0.05 h

---

Test: Lipophilicity, log D of the compound at pH 7.4
Conditions: buffer
Result type: logD

(Q) Fill in the blank: the reported logD of CCP(=O)(OC)c1ccc2nc(-c3cncc(C(F)(F)F)c3)oc2c1 (centres undefined) is ____.
(A) 2.41

(Q) logD for CCP(=O)(OC)c1ccc2oc(-c3ccccc3OC(F)F)nc2c1 (centres undefined) ?
(A) 2.45

(Q) GET /values?readout=logD&item= CCP(=O)(OC)c1ccc2nc(-c3ccc(C(F)F)cc3)oc2c1 (centres undefined)
(A) 2.98

(Q) Could you tell me which logD is on file for CCP(=O)(OC)c1ccc2oc(-c3ccc(C(F)F)cc3)nc2c1 (centres undefined) ?
(A) 3.06

(Q) What does the data say about its logD? Entry: CCP(=O)(OC)c1ccc2nc(-c3ccc(F)cc3C(F)F)oc2c1 (centres undefined)
(A) 3.59

(Q) Consider the molecule shown here: CCP(=O)(OC)c1ccc2oc(-c3ccc(F)cc3C(F)F)nc2c1 (centres undefined) What is its recorded logD?
(A) 3.4

(Q) Quick one: logD of CCP(=O)(OC)c1ccc2oc(-c3ccc4c(c3)OC(F)(F)O4)nc2c1 (centres undefined) ?
(A) 2.4

(Q) State the recorded logD for this entry: CCP(=O)(OC)c1ccc2oc(-c3ccnc(OC(F)F)c3)nc2c1 (centres undefined)
(A) 2.2

(Q) Look up logD: CCP(=O)(OC)c1ccc2nc(-c3ccccc3C(F)F)oc2c1 (centres undefined)
(A) 3.33

(Q) Please look up its logD: CCP(=O)(OC)c1ccc2oc(-c3ccc(F)cc3)nc2c1 (centres undefined)
(A) 2.8

(Q) Find the recorded logD belonging to CCP(=O)(OC)c1ccc2nc(-c3cncc(C(F)F)c3)oc2c1 (centres undefined) and report it.
(A) 2.08

(Q) Returns the measured logD for the input molecule. Input: CCP(=O)(OC)c1ccc2oc(-c3cncc(C(F)(F)F)c3)nc2c1 (centres undefined)
(A) 2.44

(Q) Give its logD value. Item: CCP(=O)(OC)c1ccc2oc(-c3ccccc3C(F)F)nc2c1 (centres undefined)
(A) 2.8

(Q) Entry CCP(=O)(OC)c1ccc2nc(-c3ccnc(OC(F)F)c3)oc2c1 (centres undefined) has what logD?
(A) 2.6
